Assay: probe aInhba binding on compound microarray – biochemical, small-molecule microarray, 635/667 nm fluorescence, primary screen (AID 1148);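 note: score merges 667nm spot fluorescence with signal-to-noise for antibody binding to printed compounds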
Conditions: higher = more signal
VALUE_TYPE: composite z-score

> print(dat)
                                   compound  value.observed
1  O=C1[C@H]2C=C(Br)[C@H](C[C@@H]2OCCOCCO)[C@@]12CO2          -0.118
2  CCCC[C@@H]1C[C@H]1[C@@H](NC(=O)c1ccccc1)c1ccccc1           0.401
3  O=C1OCC=C[C@H]2OC34C=CCN(Cc5ccccc5)C(=O)[C@H]3N(CCCO)C(=O)[C@@H]4[C@@H]12 (some centres undefined)           0.222
4  CCOC(=O)C[C@H]1[C@H](OC(=O)c2ccccc2-c2ccccc2)[C@@H](NC(=O)c2ccc(-c3ccccc3)cc2)c2cc(OCCCO)ccc2N1C(=O)c1ccccc1          0.0569

----------
// reported composite z-score for each item listed
Biological target: Neurogenic locus notch homolog protein 2 (Homo sapiens) (UniProt Q04721)
Sequence (Q04721 whole entry, looked up): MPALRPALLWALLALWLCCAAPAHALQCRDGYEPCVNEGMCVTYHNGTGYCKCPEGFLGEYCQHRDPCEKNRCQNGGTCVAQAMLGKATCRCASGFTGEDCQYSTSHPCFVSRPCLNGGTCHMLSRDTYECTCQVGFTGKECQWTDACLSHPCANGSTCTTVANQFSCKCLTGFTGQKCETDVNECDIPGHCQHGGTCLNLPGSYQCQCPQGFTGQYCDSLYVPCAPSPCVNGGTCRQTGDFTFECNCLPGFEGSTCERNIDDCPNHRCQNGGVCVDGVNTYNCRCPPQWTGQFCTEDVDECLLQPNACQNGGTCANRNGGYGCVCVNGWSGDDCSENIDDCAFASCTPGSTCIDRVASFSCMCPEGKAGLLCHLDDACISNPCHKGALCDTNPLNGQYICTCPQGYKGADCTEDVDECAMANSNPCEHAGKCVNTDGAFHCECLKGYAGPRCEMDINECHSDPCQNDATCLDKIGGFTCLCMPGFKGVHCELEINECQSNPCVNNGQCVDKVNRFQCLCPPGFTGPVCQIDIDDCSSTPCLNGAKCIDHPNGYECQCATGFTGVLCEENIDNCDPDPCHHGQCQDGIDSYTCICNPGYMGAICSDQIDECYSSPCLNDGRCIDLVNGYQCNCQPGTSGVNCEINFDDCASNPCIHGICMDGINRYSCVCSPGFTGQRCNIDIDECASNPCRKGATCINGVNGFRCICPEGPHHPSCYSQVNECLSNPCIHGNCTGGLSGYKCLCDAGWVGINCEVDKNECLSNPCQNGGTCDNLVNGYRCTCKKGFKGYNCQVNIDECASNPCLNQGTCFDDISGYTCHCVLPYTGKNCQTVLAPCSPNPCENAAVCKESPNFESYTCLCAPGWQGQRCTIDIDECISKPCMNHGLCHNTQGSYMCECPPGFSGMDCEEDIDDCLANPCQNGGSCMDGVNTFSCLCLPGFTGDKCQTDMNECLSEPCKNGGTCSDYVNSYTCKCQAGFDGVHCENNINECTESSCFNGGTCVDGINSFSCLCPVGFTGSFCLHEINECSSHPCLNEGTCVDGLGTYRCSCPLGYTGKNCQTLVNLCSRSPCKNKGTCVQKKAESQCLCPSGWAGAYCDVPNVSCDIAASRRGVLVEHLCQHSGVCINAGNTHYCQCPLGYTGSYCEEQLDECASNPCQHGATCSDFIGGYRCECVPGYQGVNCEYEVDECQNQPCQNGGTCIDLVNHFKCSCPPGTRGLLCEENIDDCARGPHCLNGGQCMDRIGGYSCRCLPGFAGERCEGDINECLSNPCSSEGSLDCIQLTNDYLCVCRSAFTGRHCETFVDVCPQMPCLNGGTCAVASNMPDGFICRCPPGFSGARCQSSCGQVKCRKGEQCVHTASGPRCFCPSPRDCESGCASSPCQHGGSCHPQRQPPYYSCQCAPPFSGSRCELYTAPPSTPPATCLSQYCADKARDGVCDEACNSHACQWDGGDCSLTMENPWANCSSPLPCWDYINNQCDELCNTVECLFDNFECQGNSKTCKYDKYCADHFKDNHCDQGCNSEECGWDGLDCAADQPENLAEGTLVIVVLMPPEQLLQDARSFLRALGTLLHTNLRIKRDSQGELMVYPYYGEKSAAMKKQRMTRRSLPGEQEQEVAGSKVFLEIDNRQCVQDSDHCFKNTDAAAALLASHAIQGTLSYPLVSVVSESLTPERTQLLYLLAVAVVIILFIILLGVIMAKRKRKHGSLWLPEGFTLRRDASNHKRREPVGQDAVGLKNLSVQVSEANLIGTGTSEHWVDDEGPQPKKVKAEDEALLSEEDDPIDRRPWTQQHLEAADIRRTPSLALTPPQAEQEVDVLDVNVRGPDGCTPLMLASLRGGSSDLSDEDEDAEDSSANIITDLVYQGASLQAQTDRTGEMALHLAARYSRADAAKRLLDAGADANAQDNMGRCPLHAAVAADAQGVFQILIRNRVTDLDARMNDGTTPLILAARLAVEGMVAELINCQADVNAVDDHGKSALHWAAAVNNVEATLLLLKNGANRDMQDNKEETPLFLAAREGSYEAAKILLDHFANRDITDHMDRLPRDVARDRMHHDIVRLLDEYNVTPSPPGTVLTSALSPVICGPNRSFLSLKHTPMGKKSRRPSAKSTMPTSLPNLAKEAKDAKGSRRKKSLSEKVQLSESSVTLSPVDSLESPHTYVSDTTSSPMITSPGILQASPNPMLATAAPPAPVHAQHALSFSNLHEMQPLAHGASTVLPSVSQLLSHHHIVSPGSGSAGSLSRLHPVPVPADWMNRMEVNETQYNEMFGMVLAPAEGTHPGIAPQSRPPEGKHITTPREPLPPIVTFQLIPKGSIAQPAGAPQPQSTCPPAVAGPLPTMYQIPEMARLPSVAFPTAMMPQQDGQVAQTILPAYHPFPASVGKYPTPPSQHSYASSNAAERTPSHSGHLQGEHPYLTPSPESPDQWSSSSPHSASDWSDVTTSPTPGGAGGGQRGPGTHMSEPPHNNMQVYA
Assay: small molecules binding Notch2 protein – biochemical, small-molecule microarray, 635 nm fluorescence, stem cell growth factors, primary screen (AID 1073)
Settings: higher = more signal

COMPOUND	TESTED_TARGET	composite z-score
CC[C@@H]1C=C(C(=O)O)[C@H](c2ccc(C(C)C)cc2)N1S(=O)(=O)c1ccc(C)cc1	Neurogenic locus notch homolog protein 2 (Homo sapiens) (UniProt Q04721)	1.75
C=CCC(OC(C)=O)[C@@H]1[C@@H](N(Cc2ccc(-c3ccccc3)cc2)C(=O)c2ccc(C)cc2)c2cc(OCCCO)ccc2N1C(=O)Cc1ccc(OC)cc1 (stereo partly specified)	Neurogenic locus notch homolog protein 2 (Homo sapiens) (UniProt Q04721)	-0.0045
NC(=O)NCC#Cc1ccc2c(c1)[C@]1(C(=O)N2)[C@H](c2ccccc2OCCO)N2[C@H](c3ccccc3)[C@H](c3ccccc3)OC(=O)[C@H]2[C@@H]1C(=O)N1CCCCCCC1	Neurogenic locus notch homolog protein 2 (Homo sapiens) (UniProt Q04721)	1.38
O=C1O[C@@H](c2ccccc2)[C@@H](c2ccccc2)N2[C@@H](c3ccccc3OCCO)[C@]3(C(=O)Nc4ccc(C#CC5(O)CCCCCC5)cc43)[C@@H](C(=O)NC[C@H](O)c3ccccc3)[C@H]12	Neurogenic locus notch homolog protein 2 (Homo sapiens) (UniProt Q04721)	0.81
COCCOC(=O)N1C(=O)[C@@]2(c3cc(C#Cc4ccc(OC)cc4)ccc31)[C@H](C(N)=O)[C@H]1C(=O)O[C@H](c3ccccc3)[C@H](c3ccccc3)N1[C@@H]2c1ccc(O)cc1	Neurogenic locus notch homolog protein 2 (Homo sapiens) (UniProt Q04721)	-1.64
O=C1C2C=CC(C(O)C3CC=CCC3)N(n3cnnc3)C2C(=O)N1Cc1ccccc1 (stereo unspecified)	Neurogenic locus notch homolog protein 2 (Homo sapiens) (UniProt Q04721)	-1.23
O=C(NCCN1CCOCC1)[C@@H]1c2ccccc2C(=O)N(Cc2cc(F)cc(C(F)(F)F)c2)[C@H]1c1ccc(CO)cc1	Neurogenic locus notch homolog protein 2 (Homo sapiens) (UniProt Q04721)	-0.987
C=CCOC(=O)[C@@H]1[C@H]2C(=O)O[C@H](c3ccccc3)[C@H](c3ccccc3)N2[C@H](c2ccc(OCCOC(=O)[C@H]3C[C@H]4C(=O)N[C@@H](CC(C)C)C(=O)N4[C@H]3c3cccc(OCCO)c3)cc2)[C@@]12C(=O)Nc1ccc(I)cc12	Neurogenic locus notch homolog protein 2 (Homo sapiens) (UniProt Q04721)	0.809
COCCOC(=O)N1C(=O)[C@@]2(c3cc(C#CCCO)ccc31)[C@H](c1ccc(O)cc1)N1[C@H](c3ccccc3)[C@H](c3ccccc3)OC(=O)[C@H]1[C@@H]2C(=O)N1CCCCCCC1	Neurogenic locus notch homolog protein 2 (Homo sapiens) (UniProt Q04721)	1.33
C=CCOC(=O)[C@H]1[C@@H]2C(=O)O[C@@H](c3ccccc3)[C@@H](c3ccccc3)N2[C@@H](c2ccc(OCCOC(=O)[C@H]3C[C@H]4C(=O)N[C@@H](CCCC[N+](C)(C)C)C(=O)N4[C@H]3c3ccc(O)cc3)cc2)[C@]12C(=O)Nc1ccccc12	Neurogenic locus notch homolog protein 2 (Homo sapiens) (UniProt Q04721)	0.193
COC(=O)[C@@]1(Cc2ccc(F)cc2)[C@H]2c3cc(C(=O)N(C)C)n(Cc4ccccn4)c3C[C@H]2CN1C(=O)c1ccccc1	Neurogenic locus notch homolog protein 2 (Homo sapiens) (UniProt Q04721)	1.65
